Tested on: SKOV3
procedure_details: SIA, collagen I invasion
Format: cell-based
reported_conditions: Homo sapiens, SK-OV-3, 100 ng/ml bFGF
readout: pEC50
As a rule, pEC50 stands for the negative log10 of the concentration, concentration in M.

Look up pEC50: O=[N+]([O-])c1c(Cl)cc(O)c2c1C1C=CCC1C(c1ccc(Cl)cc1)N2 (stereo not shown) [Compound 7]
5.35

----------
Listed compounds paired with reported MRT
procedure_details: In vivo bioavailability / PK after 1 mg/kg IV or 10 mg/kg PO
Parameters: species or system Male ICR mice
reported_conditions: male, ICR, mouse, plasma; 10 mg/kg, PO
Give the value, in units of h, as a plain number.

compound="Cc1[nH]nc(-c2ccc(O)c(C)c2O)c1-c1nc2ccccc2s1 [Compound E12]" readout=MRT measured_value=3.88

Pending compound:
Look up MRT: O=[N+]([O-])c1c(Cl)cc(O)c2c1C1C=CCC1C(c1ccc(Cl)cc1)N2 (centres unmarked) [Compound 7]
4.71
